# Tested on: 883617-216-R-J1-PDC complex spheroids, growth, % test/control
# Measurement protocol: Anticancer human tumor 883617-216-R-J1-PDC patient-derived bladder carcinoma cell line growth inhibition [AhR]
# Conditions used: second compound 1 µM; first compound 3.16 µM; active compounds read low
Measured endpoint: viability, T/C (%)

[[record]]
compound = "COc1cc(C2c3cc4c(cc3C(OC3OC5COC(C)OC5C(O)C3O)C3COC(=O)C23)OCO4)cc(OC)c1O (stereo unspecified) + CC(CO)NC(=O)c1cc(-c2ccc(Cl)cc2)nn(-c2cnn(C)c2)c1=O"
result_unit = "%"
value_measured = 84.3

[[record]]
compound = "CC(C)c1c(-c2ccccc2)nc2c(C#N)c[nH]n2c1=O + CC(CO)NC(=O)c1cc(-c2ccc(Cl)cc2)nn(-c2cnn(C)c2)c1=O"
result_unit = "%"
value_measured = 87.1

[[record]]
compound = "O=C(c1cc(Cc2n[nH]c(=O)c3ccccc23)ccc1F)N1CCN(C(=O)C2CC2)CC1 + Cc1ccccc1N=Nc1ccc(NC(=O)c2ccnn2C)c(C)c1"
result_unit = "%"
value_measured = 80.7

[[record]]
compound = "COc1cc(Nc2ncc3c(n2)-c2ccc(Cl)cc2C(c2c(F)cccc2OC)=NC3)ccc1C(=O)O + Cc1ccccc1N=Nc1ccc(NC(=O)c2ccnn2C)c(C)c1"
result_unit = "%"
value_measured = 63.7

[[record]]
compound = "COc1cc(C2c3cc4c(cc3C(OC3OC5COC(C)OC5C(O)C3O)C3COC(=O)C23)OCO4)cc(OC)c1O (stereo unspecified) + Cc1cncc(-c2nc(NCCc3c[nH]c4ccccc34)c3ncn(C(C)C)c3n2)c1"
result_unit = "%"
value_measured = 81.4

[[record]]
compound = "O=C(c1cc(Cc2n[nH]c(=O)c3ccccc23)ccc1F)N1CCN(C(=O)C2CC2)CC1 + Cc1cncc(-c2nc(NCCc3c[nH]c4ccccc34)c3ncn(C(C)C)c3n2)c1"
result_unit = "%"
value_measured = 87


----------
# Tested on: 883617-216-R-J1-PDC complex spheroids, growth, % test/control
# Measurement protocol: Anticancer human tumor 883617-216-R-J1-PDC cell line growth inhibition [AhR];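 note: exposure lasted 7 days after dosing on day 3 of spheroid growth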
# Conditions used: second compound 0.1 µM; first compound 3.16 µM; active compounds read low
Exam item: assign 1 to entries whose viability, T/C is below 70% and -1 to entries at or above 70%. Note that a value of exactly 70% receives -1.

[[record]]
compound = "NS(=O)(=O)OCC1CC(n2ccc3c(NC4CCc5ccccc54)ncnc32)CC1O (stereo not given) + CC(CO)NC(=O)c1cc(-c2ccc(Cl)cc2)nn(-c2cnn(C)c2)c1=O"
label_class = 1

[[record]]
compound = "COc1ccc([C@@H](O)c2cc(-c3ncnc4cc(N5CCOCC5)ccc34)c(F)cc2Cl)nn1 + Cc1cncc(-c2nc(NCCc3c[nH]c4ccccc34)c3ncn(C(C)C)c3n2)c1"
label_class = 1

[[record]]
compound = "COc1cccc2c1C(=O)c1c(O)c3c(c(O)c1C2=O)CC(O)(C(=O)CO)CC3OC1CC(N)C(O)C(C)O1 (stereo not given) + Cc1ccccc1N=Nc1ccc(NC(=O)c2ccnn2C)c(C)c1"
label_class = 1

[[record]]
compound = "COc1cccc2c1C(=O)c1c(O)c3c(c(O)c1C2=O)CC(O)(C(=O)CO)CC3OC1CC(N)C(O)C(C)O1 (stereo not given) + CC(CO)NC(=O)c1cc(-c2ccc(Cl)cc2)nn(-c2cnn(C)c2)c1=O"
label_class = 1

[[record]]
compound = "Nc1ccccc1NC(=O)c1ccc(CNC(=O)OCc2cccnc2)cc1 + Cc1cncc(-c2nc(NCCc3c[nH]c4ccccc34)c3ncn(C(C)C)c3n2)c1"
label_class = 1

[[record]]
compound = "CC1COCCN1c1cc(C2(S(C)(=N)=O)CC2)nc(-c2ccnc3[nH]ccc23)n1 (stereo not given) + CC(CO)NC(=O)c1cc(-c2ccc(Cl)cc2)nn(-c2cnn(C)c2)c1=O"
label_class = -1

[[record]]
compound = "COc1cc(C2c3cc4c(cc3C(OC3OC5COC(C)OC5C(O)C3O)C3COC(=O)C23)OCO4)cc(OC)c1O (stereo not given) + CC(CO)NC(=O)c1cc(-c2ccc(Cl)cc2)nn(-c2cnn(C)c2)c1=O"
label_class = -1

[[record]]
compound = "Nc1ccn(C2OC(CO)C(O)C2(F)F)c(=O)n1 (stereo not given) + Cc1ccccc1N=Nc1ccc(NC(=O)c2ccnn2C)c(C)c1"
label_class = 1

[[record]]
compound = "COc1ccc([C@@H](O)c2cc(-c3ncnc4cc(N5CCOCC5)ccc34)c(F)cc2Cl)nn1 + CC(CO)NC(=O)c1cc(-c2ccc(Cl)cc2)nn(-c2cnn(C)c2)c1=O"
label_class = 1

[[record]]
compound = "O=C(C=Cc1cccc(S(=O)(=O)Nc2ccccc2)c1)NO + Cc1cncc(-c2nc(NCCc3c[nH]c4ccccc34)c3ncn(C(C)C)c3n2)c1"
label_class = 1

[[record]]
compound = "O=C(c1cc(Cc2n[nH]c(=O)c3ccccc23)ccc1F)N1CCN(C(=O)C2CC2)CC1 + Cc1ccccc1N=Nc1ccc(NC(=O)c2ccnn2C)c(C)c1"
label_class = -1

[[record]]
compound = "CC1(C)CCC(CN2CCN(c3ccc(C(=O)NS(=O)(=O)c4ccc(NCC5CCOCC5)c([N+](=O)[O-])c4)c(Oc4cnc5[nH]ccc5c4)c3)CC2)=C(c2ccc(Cl)cc2)C1 + Cc1ccccc1N=Nc1ccc(NC(=O)c2ccnn2C)c(C)c1"
label_class = -1

[[record]]
compound = "CC1(C)CCC(CN2CCN(c3ccc(C(=O)NS(=O)(=O)c4ccc(NCC5CCOCC5)c([N+](=O)[O-])c4)c(Oc4cnc5[nH]ccc5c4)c3)CC2)=C(c2ccc(Cl)cc2)C1 + Cc1cncc(-c2nc(NCCc3c[nH]c4ccccc34)c3ncn(C(C)C)c3n2)c1"
label_class = -1

[[record]]
compound = "COc1cc(Nc2ncc3c(n2)-c2ccc(Cl)cc2C(c2c(F)cccc2OC)=NC3)ccc1C(=O)O + Cc1cncc(-c2nc(NCCc3c[nH]c4ccccc34)c3ncn(C(C)C)c3n2)c1"
label_class = -1


----------
# Test system: 883617-216-R-J1-PDC complex spheroids, growth, % test/control
# Measurement protocol: Anticancer human tumor 883617-216-R-J1-PDC cell line growth inhibition [AhR]; active = viability on the fitted dose curve at most 10% of control; inactive = the rest;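 note: exposure lasted 7 days after dosing on day 3 of spheroid growth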
# Conditions used: second compound 1 µM; first compound 0.3 µM
Outcome codes: active, inactive

[[record]]
compound = "CCc1c2c(nc3ccc(O)cc13)-c1cc3c(c(=O)n1C2)COC(=O)[C@]3(O)CC + Cc1ccccc1N=Nc1ccc(NC(=O)c2ccnn2C)c(C)c1"
tested_system = "883617-216-R-J1-PDC complex spheroids, growth, % test/control"
label_class = "inactive"

[[record]]
compound = "CCN(c1cc(-c2ccc(CN3CCOCC3)cc2)cc(C(=O)NCc2c(C)cc(C)[nH]c2=O)c1C)C1CCOCC1 + CC(CO)NC(=O)c1cc(-c2ccc(Cl)cc2)nn(-c2cnn(C)c2)c1=O"
tested_system = "883617-216-R-J1-PDC complex spheroids, growth, % test/control"
label_class = "inactive"

[[record]]
compound = "CC(C)CC(NC(=O)C(Cc1ccccc1)NC(=O)c1cnccn1)B(O)O (stereo not given) + Cc1cncc(-c2nc(NCCc3c[nH]c4ccccc34)c3ncn(C(C)C)c3n2)c1"
tested_system = "883617-216-R-J1-PDC complex spheroids, growth, % test/control"
label_class = "active"

[[record]]
compound = "Nc1ncn(C2CC(O)C(CO)S2)c(=O)n1 (stereo not given) + Cc1cncc(-c2nc(NCCc3c[nH]c4ccccc34)c3ncn(C(C)C)c3n2)c1"
tested_system = "883617-216-R-J1-PDC complex spheroids, growth, % test/control"
label_class = "inactive"

[[record]]
compound = "O=C(C=Cn1cnc(-c2cc(C(F)(F)F)cc(C(F)(F)F)c2)n1)NNc1cnccn1 + Cc1cncc(-c2nc(NCCc3c[nH]c4ccccc34)c3ncn(C(C)C)c3n2)c1"
tested_system = "883617-216-R-J1-PDC complex spheroids, growth, % test/control"
label_class = "inactive"

